Below, each entry is listed with its recorded percent inhibition of viability.
# Test system: KAI3 (IL-2 2.5 ng/mL)
# measurementProtocol: percent inhibition of viability; higher = more inhibition
# studyConditions: 72 h; 10000 nM
property: percent inhibition of viability (%)

[[record]]
compound = "CC[C@H](C)C(=O)O[C@H]1C[C@@H](C)C=C2C=C[C@H](C)[C@H](CC[C@@H]3C[C@@H](O)CC(=O)O3)[C@H]21 [Lovastatin] (max concentration tested 10000 nM)"
systemname = "KAI3 (IL-2 2.5 ng/mL)"
property = "percent inhibition of viability"
valuemeasured = 14

[[record]]
compound = "CO[C@H](C(=O)[C@@H](O)[C@@H](C)O)[C@@H]1Cc2cc3cc(O[C@H]4C[C@@H](O[C@@H]5C[C@@H](O)[C@H](O)[C@@H](C)O5)[C@H](O)[C@@H](C)O4)c(C)c(O)c3c(O)c2C(=O)[C@H]1O[C@H]1C[C@@H](O[C@@H]2C[C@@H](O)[C@@H](O[C@@H]3C[C@](C)(O)[C@H](O)[C@@H](C)O3)[C@@H](C)O2)[C@H](O)[C@@H](C)O1 [Plicamycin] (max concentration tested 10000 nM)"
systemname = "KAI3 (IL-2 2.5 ng/mL)"
property = "percent inhibition of viability"
valuemeasured = 106

[[record]]
compound = "CC(C)n1cnc2c(NCCc3ccc(O)cc3)nc(-c3csc4ccccc34)nc21 [StemRegenin 1] (max concentration tested 10000 nM)"
systemname = "KAI3 (IL-2 2.5 ng/mL)"
property = "percent inhibition of viability"
valuemeasured = 76.8

[[record]]
compound = "COc1cc(OC)c(/C=C/S(=O)(=O)Cc2ccc(OC)c(NCC(=O)O)c2)c(OC)c1 [Rigosertib] (max concentration tested 10000 nM)"
systemname = "KAI3 (IL-2 2.5 ng/mL)"
property = "percent inhibition of viability"
valuemeasured = 67.5


* * *

Below is a list of entries, each paired with its recorded percent inhibition of viability value.
# Tested on: NKL (IL-2 2.5 ng/mL)
# measurementProtocol: percent inhibition of viability; higher = more inhibition
# studyConditions: 72 h; 10000 nM
property: percent inhibition of viability (%)

[[record]]
compound = "Cn1c(CCCC(=O)O)nc2cc(N(CCCl)CCCl)ccc21 [Bendamustine] (max concentration tested 10000 nM)"
systemname = "NKL (IL-2 2.5 ng/mL)"
property = "percent inhibition of viability"
unitname = "%"
valuemeasured = 88.6

[[record]]
compound = "O=C(CCCCCCC(=O)Nc1ccc([C@H]2O[C@@H](CSc3nc(-c4ccccc4)c(-c4ccccc4)o3)C[C@@H](c3ccc(CO)cc3)O2)cc1)NO [Tubacin] (max concentration tested 10000 nM)"
systemname = "NKL (IL-2 2.5 ng/mL)"
property = "percent inhibition of viability"
unitname = "%"
valuemeasured = 86.2

[[record]]
compound = "CC/C(=C(\\c1ccccc1)c1ccc(OCCN(C)C)cc1)c1ccccc1 [Tamoxifen] (max concentration tested 10000 nM)"
systemname = "NKL (IL-2 2.5 ng/mL)"
property = "percent inhibition of viability"
unitname = "%"
valuemeasured = 73.4

[[record]]
compound = "O=P1(NCCCl)OCCCN1CCCl (stereo not drawn) [Ifosfamide] (max concentration tested 10000 nM)"
systemname = "NKL (IL-2 2.5 ng/mL)"
property = "percent inhibition of viability"
unitname = "%"
valuemeasured = -25.2

[[record]]
compound = "O=C(NC[C@H](O)CO)c1ccncc1Nc1ccc(I)cc1F [Pimasertib] (max concentration tested 10000 nM)"
systemname = "NKL (IL-2 2.5 ng/mL)"
property = "percent inhibition of viability"
unitname = "%"
valuemeasured = 66.3

[[record]]
compound = "CCC(C)(C)C(=O)O[C@H]1C[C@@H](C)C=C2C=C[C@H](C)[C@H](CC[C@@H]3C[C@@H](O)CC(=O)O3)[C@H]21 [Simvastatin] (max concentration tested 10000 nM)"
systemname = "NKL (IL-2 2.5 ng/mL)"
property = "percent inhibition of viability"
unitname = "%"
valuemeasured = 68.9

[[record]]
compound = "C[C@@H](C(=O)O)c1ccc(-c2ccccc2)c(F)c1 [Tarenflurbil] (max concentration tested 10000 nM)"
systemname = "NKL (IL-2 2.5 ng/mL)"
property = "percent inhibition of viability"
unitname = "%"
valuemeasured = 16.2

[[record]]
compound = "CC[C@H](C)C(=O)O[C@H]1C[C@@H](C)C=C2C=C[C@H](C)[C@H](CC[C@@H]3C[C@@H](O)CC(=O)O3)[C@H]21 [Lovastatin] (max concentration tested 10000 nM)"
systemname = "NKL (IL-2 2.5 ng/mL)"
property = "percent inhibition of viability"
unitname = "%"
valuemeasured = 50.5

[[record]]
compound = "COc1nc(N)nc2c1ncn2[C@@H]1O[C@H](CO)[C@@H](O)[C@@H]1O [Nelarabine] (max concentration tested 10000 nM)"
systemname = "NKL (IL-2 2.5 ng/mL)"
property = "percent inhibition of viability"
unitname = "%"
valuemeasured = 56.7

[[record]]
compound = "N#CC1(c2ccc(NC(=O)c3cccnc3NCc3ccncc3)cc2)CCCC1 [Apatinib] (max concentration tested 10000 nM)"
systemname = "NKL (IL-2 2.5 ng/mL)"
property = "percent inhibition of viability"
unitname = "%"
valuemeasured = -12.3

[[record]]
compound = "CCC1(c2ccc(N)cc2)CCC(=O)NC1=O (stereo not drawn) [Aminoglutethimide] (max concentration tested 10000 nM)"
systemname = "NKL (IL-2 2.5 ng/mL)"
property = "percent inhibition of viability"
unitname = "%"
valuemeasured = 15.1

[[record]]
compound = "CNC(=O)c1ccc2cc([C@@]3(O)CCn4cncc43)ccc2c1 [Orteronel] (max concentration tested 10000 nM)"
systemname = "NKL (IL-2 2.5 ng/mL)"
property = "percent inhibition of viability"
unitname = "%"
valuemeasured = -4.85

[[record]]
compound = "Nc1nc(Nc2ccc3c(c2)CC[C@@H](N2CCCC2)CC3)nn1-c1cc2c(nn1)-c1ccccc1CCC2 [BGB324] (max concentration tested 10000 nM)"
systemname = "NKL (IL-2 2.5 ng/mL)"
property = "percent inhibition of viability"
unitname = "%"
valuemeasured = 102


* * *

# Tested on: NKL (IL-2 2.5 ng/mL)
# measurementProtocol: relative IC50 (inflection point of fitted viability curve, relative to fitted max inhibition); higher = less sensitive
# studyConditions: 72 h
property: relative IC50 (nM)

[[record]]
compoundstring = "O=C(NOCCO)c1ccc2cncn2c1Nc1ccc(I)cc1F"
valuemeasured = 22.1

[[record]]
compoundstring = "COc1cc(OC)c(/C=C/S(=O)(=O)Cc2ccc(OC)c(NCC(=O)O)c2)c(OC)c1"
valuemeasured = 43

[[record]]
compoundstring = "CCCc1cc(C)[nH]c(=O)c1CNC(=O)c1cc(-c2ccnc(N3CCN(C)CC3)c2)cc2c1cnn2C(C)C"
valuemeasured = 3350

[[record]]
compoundstring = "Cc1cc(Nc2nc(N[C@@H](C)c3ncc(F)cn3)ncc2Cl)[nH]n1"
valuemeasured = 23.3


* * *

# Tested on: KAI3 (IL-2 2.5 ng/mL)
# measurementProtocol: percent inhibition of viability; higher = more inhibition
# studyConditions: 72 h; 1 nM
property: percent inhibition of viability (%)

[[record]]
compound = "Nc1nc(Nc2ccc3c(c2)CC[C@@H](N2CCCC2)CC3)nn1-c1cc2c(nn1)-c1ccccc1CCC2 [BGB324] (max concentration tested 10000 nM)"
valuemeasured = -3.31

[[record]]
compound = "CN[C@@H](C)C(=O)N[C@H]1CN(C(=O)CC(C)C)CC[C@H]2CC[C@@H](C(=O)NC(c3ccccc3)c3ccccc3)N2C1=O [AT-406] (max concentration tested 10000 nM)"
valuemeasured = 0.46

[[record]]
compound = "COc1cc([C@@H]2c3cc4c(cc3[C@@H](O[C@@H]3O[C@@H]5CO[C@@H](C)O[C@H]5[C@H](O)[C@H]3O)[C@H]3COC(=O)[C@H]23)OCO4)cc(OC)c1O [Etoposide] (max concentration tested 10000 nM)"
valuemeasured = 5.94

[[record]]
compound = "O=C(O)CC[C@H]1CC[C@@](c2cc(F)ccc2F)(S(=O)(=O)c2ccc(Cl)cc2)CC1 [MK-0752] (max concentration tested 1000 nM)"
valuemeasured = -3.61

[[record]]
compound = "CCCCCCCCc1ccc(CCC(N)(CO)CO)cc1 [Fingolimod] (max concentration tested 10000 nM)"
valuemeasured = -5.76

[[record]]
compound = "Cc1ccc(-n2nc(C(C)(C)C)cc2NC(=O)Nc2ccc(OCCN3CCOCC3)c3ccccc23)cc1 [Doramapimod] (max concentration tested 10000 nM)"
valuemeasured = -7.62

[[record]]
compound = "O=C1NC(=O)[C@@H](c2cn3c4c(cccc24)CCC3)[C@@H]1c1c[nH]c2ccccc12 [Tivantinib] (max concentration tested 1000 nM)"
valuemeasured = 0.6

[[record]]
compound = "Cn1cc(C2=C(c3cn(C4CCN(Cc5ccccn5)CC4)c4ccccc34)C(=O)NC2=O)c2ccccc21 [Enzastaurin] (max concentration tested 10000 nM)"
valuemeasured = -2.12

[[record]]
compound = "N#CCNC(=O)c1ccc(-c2ccnc(Nc3ccc(N4CCOCC4)cc3)n2)cc1 [Momelotinib] (max concentration tested 10000 nM)"
valuemeasured = 5.39

[[record]]
compound = "CCCc1cc(C)[nH]c(=O)c1CNC(=O)c1cc(-c2ccnc(N3CCN(C)CC3)c2)cc2c1cnn2C(C)C [GSK343] (max concentration tested 10000 nM)"
valuemeasured = -6.07

[[record]]
compound = "N#Cc1ccc2[nH]c(O)c(-c3ccc(CN4CCOCC4)cn3)c2c1 [AZD-1080] (max concentration tested 10000 nM)"
valuemeasured = -2.28

[[record]]
compound = "Cc1ccc(Nc2nccc(N(C)c3ccc4c(C)n(C)nc4c3)n2)cc1S(N)(=O)=O [Pazopanib] (max concentration tested 10000 nM)"
valuemeasured = -4.79

[[record]]
compound = "CC[C@]1(O)C[C@H]2CN(CCc3c([nH]c4ccccc34)[C@@](C(=O)OC)(c3cc4c(cc3OC)N(C=O)[C@H]3[C@@](O)(C(=O)OC)[C@H](OC(C)=O)[C@]5(CC)C=CCN6CC[C@]43[C@@H]65)C2)C1 [Vincristine] (max concentration tested 1000 nM)"
valuemeasured = 0.47

[[record]]
compound = "C[C@]12O[C@H](C[C@]1(O)CO)n1c3ccccc3c3c4c(c5c6ccccc6n2c5c31)CNC4=O [Lestaurtinib] (max concentration tested 1000 nM)"
valuemeasured = 3.13

[[record]]
compound = "COc1nc(N)nc2c1ncn2[C@@H]1O[C@H](CO)[C@@H](O)[C@@H]1O [Nelarabine] (max concentration tested 10000 nM)"
valuemeasured = 15.6

[[record]]
compound = "COC(=O)N[C@@H](C)CNc1nccc(-c2cn(C(C)C)nc2-c2cc(Cl)cc(NS(C)(=O)=O)c2F)n1 [Encorafenib] (max concentration tested 1000 nM)"
valuemeasured = -4.73

